- System: Saccharomyces cerevisiae BY4741 SeMeCo community
- Protocol Summary: z-score of subpopulation abundance vs DMSO median, subpopulation auxotrophic for HU; higher = larger share of this subpopulation than in DMSO controls
- Applied Conditions: 10 µM; 24 h; SM minimal medium; subpopulation (auxotrophy): HU
Structures can show the parent of a compound that is named as a salt.
satisfied means recorded z-score of subpopulation abundance is -0.5 or above; not satisfied means it is below -0.5.

Molecule | Assigned Label
CNC1CCCN(c2c(F)cc3c(=O)c(C(=O)O)cn(C4CC4)c3c2OC)C1 (centres undefined) | satisfied
CN[C@@H]1[C@H](O)[C@H](NC)[C@H]2O[C@@]3(O)C(=O)C[C@@H](C)O[C@H]3O[C@@H]2[C@H]1O [Spectinomycin 2HCl] | satisfied
Cc1noc(NS(=O)(=O)c2ccc(N)cc2)c1C | satisfied
CC(NCCC(c1ccccc1)c1ccccc1)c1ccccc1 (centres undefined) [Fendiline hydrochloride] | not satisfied
Fc1ccc([C@@H]2CCNC[C@H]2COc2ccc3c(c2)OCO3)cc1 [Paroxetine mesylate] | satisfied

API: above_or_equal(metric=z-score of subpopulation abundance, cutoff=-0.5) for item CN1CCCN=C1/C=C/c1cccs1 [Pyrantel Pamoate]
satisfied

API: above_or_equal(metric=z-score of subpopulation abundance, cutoff=-0.5) for item C[N+](C)(C)CCOC(=O)CCC(=O)OCC[N+](C)(C)C [Succinylcholine Chloride Dihydrate]
not satisfied

API: above_or_equal(metric=z-score of subpopulation abundance, cutoff=-0.5) for item Cc1c(-c2ccccc2)oc2c(C(=O)OCCN3CCCCC3)cccc2c1=O [Flavoxate HCl]
satisfied

API: above_or_equal(metric=z-score of subpopulation abundance, cutoff=-0.5) for item Clc1ccc(C(Cn2ccnc2)OCc2ccc(Sc3ccccc3)cc2)c(Cl)c1 (centres undefined) [Fenticonazole Nitrate]
satisfied

----------
- Test system: Saccharomyces cerevisiae BY4741 SeMeCo community
- Protocol Summary: z-score of subpopulation abundance vs DMSO median, subpopulation auxotrophic for L; higher = larger share of this subpopulation than in DMSO controls
- Applied Conditions: 10 µM; 24 h; SM minimal medium; subpopulation (auxotrophy): L
Where a name gives a salt, the structure may show the parent alone.
Measure: z-score of subpopulation abundance
Lab note: record just the number, no unit beside it.

# example entries with known answers
Compound | Observed Result
CONC(=O)Nc1ccc(-c2sc3c(c2CN(C)C)c(=O)n(-c2ccc(OC)nn2)c(=O)n3Cc2c(F)cccc2F)cc1 | 0.15
CO/N=C(\C(=O)N[C@@H]1C(=O)N2C(C(=O)O)=C(Cn3ccc(=N)n3CCO)CS[C@H]12)c1csc(N)n1 [Cefoselis Sulfate] | -1.67
Oc1c(Br)cc(Br)c2cccnc12 | 0.17

GET /values?readout=z-score of subpopulation abundance&system=Saccharomyces cerevisiae BY4741 SeMeCo community&item= CN(C)c1ccc(O)c2c1C[C@H]1C[C@H]3[C@H](N(C)C)C(=O)C(C(N)=O)=C(O)[C@@]3(O)C(=O)C1=C2O [Minocycline HCl]
-0.03

GET /values?readout=z-score of subpopulation abundance&system=Saccharomyces cerevisiae BY4741 SeMeCo community&item= Clc1ccc(C(Cn2ccnc2)OCc2ccsc2Cl)c(Cl)c1 (stereo not drawn)
-2.45

GET /values?readout=z-score of subpopulation abundance&system=Saccharomyces cerevisiae BY4741 SeMeCo community&item= NS(=O)(=O)Cc1noc2ccccc12 [Zonisamide]
1.91

GET /values?readout=z-score of subpopulation abundance&system=Saccharomyces cerevisiae BY4741 SeMeCo community&item= Nc1ccc2cc3ccc(N)cc3nc2c1 [Proflavine]
-7.48

GET /values?readout=z-score of subpopulation abundance&system=Saccharomyces cerevisiae BY4741 SeMeCo community&item= CN(C)C(=O)COC(=O)Cc1ccc(OC(=O)c2ccc(NC(=N)N)cc2)cc1 [Camostat Mesilate]
0.34
